Hello, the source for this data is the Deep4Chem optical property database, in case you need it.

procedureDetails: solvent given as SMILES
testConditions: in C1CCOC1
quantityName: absorption maximum (nm)
Field format: number, assumed nm, no unit text.

Use the examples below as a reference point.
{"molecule": "CC1CC=C(c2ccc(-c3cccs3)s2)CC1 (centres undefined)", "quantityName": "absorption maximum", "result": 341}
{"molecule": "CCOC(=O)c1ccc(C2=CC3=c4cc(-c5ccc(C(=O)OCC)cc5)c5nc(C(F)(F)C(F)(F)C(F)(F)F)nc6c(-c7ccc(C(=O)OCC)cc7)cc(c4c65)C4=CC(c5ccc(C(=O)OCC)cc5)=C5N=C(C(F)(F)C(F)(F)C(F)(F)F)N=C2C5C43)cc1 (centres undefined)", "quantityName": "absorption maximum", "result": 497}
{"molecule": "F[B-]1(F)OC(c2ccccc2)=Cc2cc(Cl)nc[n+]21", "quantityName": "absorption maximum", "result": 374}

Data request: Using the record for c1ccc2cc3c(cc2c1)oc1c2oc4cc5ccccc5cc4c2c2ccccc2c31 , state its measured absorption maximum.
Data returned: 395

---

Recorded absorption maximum values for a group of compounds are listed next.
procedureDetails: solvent given as SMILES
testConditions: in Cc1ccccc1
Field format: number, assumed nm, no unit text.

Use the examples below as a reference point.
{"compound": "c1cc2c3c(c1)-c1ccc4c5c(ccc(c15)B3c1ccc3c5c(ccc-2c15)CC3)CC4", "unitText": "nm", "absorption maximum": 495}
{"compound": "O=S1(=O)C2=C(c3ccc(-c4ccc(N(c5ccccc5)c5ccccc5)cc4)cc31)C1(C3=C(c4ccccc41)S(=O)(=O)c1cc(-c4ccc(N(c5ccccc5)c5ccccc5)cc4)ccc13)c1ccccc12", "unitText": "nm", "absorption maximum": 438}
{"compound": "c1ccc(-c2nc(-c3ccccc3)nc(-c3ccc(N4c5ccccc5C5(c6ccccc6-c6ccccc65)c5ccccc54)cc3)n2)cc1", "unitText": "nm", "absorption maximum": 399.05}
{"compound": "CC(=O)O[B-]1(OC(C)=O)OC(/C=C/c2ccccc2)=CC(/C=C/c2ccccc2)=[O+]1", "unitText": "nm", "absorption maximum": 424}
{"compound": "c1ccc(-c2nc3c(c4c2-c2ccccc2CC4)-c2ccccc2CC3)cc1", "unitText": "nm", "absorption maximum": 312}

Data request: Using the record for CC(C)(C)c1ccc2c(c1)c1cc(C(C)(C)C)ccc1n2-c1ccc(C(=O)c2ccc(-n3c4ccc(C(C)(C)C)cc4c4cc(C(C)(C)C)ccc43)nc2)cn1 , state its measured absorption maximum.
Data returned: 383.97

Data request: Using the record for CCCCN(CCCC)c1ccc(/C=C/c2ccc(-c3ccc(/C=C/c4ccc(N(CCCC)CCCC)cc4)cc3)cc2)cc1 , state its measured absorption maximum.
Data returned: 399.3

Data request: Using the record for Cc1cc(C)c(B(c2c(C)cc(C)cc2C)c2c(C)cc(N3c4ccccc4Oc4ccccc43)cc2C)c(C)c1 , state its measured absorption maximum.
Data returned: 399

---

procedureDetails: solvent given as SMILES
testConditions: in Cc1ccccc1
Lab note: compare absorption maximum with 400 nm, writing 1.0 if less and 0.0 if equal or more.

Reference set (5 entries):
{"molecule": "CCCCC1(CCCC)c2cc(-c3ccc(C=C4C(=O)c5ccccc5C4=O)cc3)ccc2-c2ccc(-c3ccc(C=C4C(=O)c5ccccc5C4=O)cc3)cc21", "classLabel": 0.0}
{"molecule": "O=P1(c2ccccc2)C(c2cc(C(F)(F)F)cc(C(F)(F)F)c2)=Cc2c3ccc4cccc5ccc(c6cc(-c7ccc(N(c8ccccc8)c8ccccc8)cc7)n1c26)c3c45 (stereo not drawn)", "classLabel": 0.0}
{"molecule": "CC1=CC(c2ccc(N(C)C)cc2)=[N+]2C1=Nc1c(C)cc(-c3ccc(N(C)C)cc3)n1[B-]2(F)F", "classLabel": 0.0}
{"molecule": "Cc1c2ccncc2c(C)c2c1[nH]c1ccccc12", "classLabel": 1.0}
{"molecule": "CCCCCCCCCCCCCCCCN(CCCCCCCCCCCCCCCC)c1ccc(/C=C/c2cc[n+](Cc3cc(C[n+]4ccc(/C=C/c5ccc(N(CCCCCCCCCCCCCCCC)CCCCCCCCCCCCCCCC)cc5)cc4)cc(C[n+]4ccc(/C=C/c5ccc(N(CCCCCCCCCCCCCCCC)CCCCCCCCCCCCCCCC)cc5)cc4)c3)cc2)cc1", "classLabel": 0.0}

Data request: Is it true that absorption maximum reported for c1ccc(N(c2ccccc2)c2ccc3c4cccc5c(N(c6ccccc6)c6ccccc6)ccc(c6cccc2c63)c54)cc1 is less than 400 nm?
Data returned: 0.0

Data request: Is it true that absorption maximum reported for O=C(c1ccccc1)c1cc2ccc1CCc1ccc(c(-c3ccc(N(c4ccccc4)c4ccccc4)cc3)c1)CC2 is less than 400 nm?
Data returned: 1.0

Data request: Is it true that absorption maximum reported for CC(C)c1cc(C(C)C)c(B2c3ccccc3Oc3cc(N4c5ccccc5C5(c6ccccc6Oc6ccccc65)c5ccccc54)ccc32)c(C(C)C)c1 is less than 400 nm?
Data returned: 0.0

Data request: Is it true that absorption maximum reported for O=P1(c2ccccc2)C(c2ccc(N(c3ccccc3)c3ccccc3)cc2)=Cc2ccccc21 (stereo not drawn) is less than 400 nm?
Data returned: 0.0

Data request: Is it true that absorption maximum reported for CCCCC(CC)CN1C(=O)c2cc(Oc3ccc(C(C)(C)C)cc3)c3c4c(Cl)cc5c6c(cc(Cl)c(c7c(Oc8ccc(C(C)(C)C)cc8)cc(c2c37)C1=O)c64)C(=O)N(c1c(C(C)C)cccc1C(C)C)C5=O (stereo not drawn) is less than 400 nm?
Data returned: 0.0

Data request: Is it true that absorption maximum reported for COc1ccc(C2=[N+]3C(=Nc4c5c6ccccc6c6ccc(C(C)(C)C)cc6c5c(-c5ccc(OC)cc5)n4[B-]3(F)F)c3c2c2cc(C(C)(C)C)ccc2c2ccccc32)cc1 is less than 400 nm?
Data returned: 0.0

Data request: Is it true that absorption maximum reported for CCCCCCOc1ccc(C#Cc2ccc(C#CC#Cc3ccc(C#Cc4ccc(OCCCCCC)c(OCCCCCC)c4)c4nsnc34)c3nsnc23)cc1OCCCCCC is less than 400 nm?
Data returned: 0.0

---

procedureDetails: solvent given as SMILES
testConditions: in CO
Recorded absorption maximum values for a group of compounds are listed next.
Field format: number, assumed nm, no unit text.

Use the examples below as a reference point.
{"querySmiles": "C(=C\\c1ccnc2ccccc12)/c1ccc(/C=C/c2ccnc3ccccc23)cc1", "quantityName": "absorption maximum", "result": 374}
{"querySmiles": "COc1cc2c(cc1/C=C(\\C#N)c1nc3ccccc3s1)c1ccccc1n2C", "quantityName": "absorption maximum", "result": 437}
{"querySmiles": "CC1=[N+]2C(=C(c3ccc(C#N)cc3)c3ccc(C)n3[B-]2(F)F)C=C1", "quantityName": "absorption maximum", "result": 513}
{"querySmiles": "CC1=CC(/C=C/c2ccc(OCCCN=[N+]=[N-])cc2)=[N+]2C1=C(c1ccc(N(C)C)cc1)c1c(C)cc(C)n1[B-]2(F)F", "quantityName": "absorption maximum", "result": 568}
{"querySmiles": "COc1ccc2c(c1)CCc1c-2nc(N)c(C#N)c1-c1ccc(Br)cc1", "quantityName": "absorption maximum", "result": 371}

Data request: Using the record for Cc1ccc(CN2/C(=C/C=C3\CCCC(/C=C/C4=[N+](Cc5ccc(C)cc5)c5ccccc5C4(C)C)=C3Cl)C(C)(C)c3ccccc32)cc1 , state its measured absorption maximum.
Data returned: 785

---

procedureDetails: solvent given as SMILES
testConditions: in CS(C)=O
Lab note: compare absorption maximum with 400 nm, writing T if less and F if equal or more.

{"querySmiles": "COc1ccc2c(c1)CCc1c-2nc(N)c(C#N)c1-c1ccc(Br)cc1", "classLabel": "T"}
{"querySmiles": "CCCCN1C(=O)c2cccc3c(OC)ccc(c23)C1=O", "classLabel": "F"}

Data request: Is it true that absorption maximum reported for C[N+]1=C(/C=C/C=C2/N(CCC[N+](C)(C)C)c3ccc(Br)cc3C2(C)C)C(C)(C)c2ccccc21 is less than 400 nm?
Data returned: F

Data request: Is it true that absorption maximum reported for CCOC(=O)CN(CC(=O)OCC)c1ccc(-c2cc(-c3ccncc3)nc(-c3ccncc3)c2)cc1 is less than 400 nm?
Data returned: T

Data request: Is it true that absorption maximum reported for COc1cc(OC)cc(C2=C3C(C)=C(I)C(/C=C/c4ccsc4)=[N+]3[B-](F)(F)n3c(/C=C/c4ccsc4)c(I)c(C)c32)c1 is less than 400 nm?
Data returned: F

Data request: Is it true that absorption maximum reported for CN(C)c1ccc2nc(-c3ccccc3)sc2c1 is less than 400 nm?
Data returned: T

Data request: Is it true that absorption maximum reported for CCC1=C(C)C2=Cc3cc4c(cc3B(O)N2C1=O)OCO4 is less than 400 nm?
Data returned: T

Data request: Is it true that absorption maximum reported for Cn1c(=O)c(/N=N/c2ccc(/N=N/c3ccc(S(=O)(=O)O)cc3)cc2)c(O)c2ccccc21 is less than 400 nm?
Data returned: F
